# assay system: TLR8 (Homo sapiens)
# Sequence (Q9NR97 27-1041): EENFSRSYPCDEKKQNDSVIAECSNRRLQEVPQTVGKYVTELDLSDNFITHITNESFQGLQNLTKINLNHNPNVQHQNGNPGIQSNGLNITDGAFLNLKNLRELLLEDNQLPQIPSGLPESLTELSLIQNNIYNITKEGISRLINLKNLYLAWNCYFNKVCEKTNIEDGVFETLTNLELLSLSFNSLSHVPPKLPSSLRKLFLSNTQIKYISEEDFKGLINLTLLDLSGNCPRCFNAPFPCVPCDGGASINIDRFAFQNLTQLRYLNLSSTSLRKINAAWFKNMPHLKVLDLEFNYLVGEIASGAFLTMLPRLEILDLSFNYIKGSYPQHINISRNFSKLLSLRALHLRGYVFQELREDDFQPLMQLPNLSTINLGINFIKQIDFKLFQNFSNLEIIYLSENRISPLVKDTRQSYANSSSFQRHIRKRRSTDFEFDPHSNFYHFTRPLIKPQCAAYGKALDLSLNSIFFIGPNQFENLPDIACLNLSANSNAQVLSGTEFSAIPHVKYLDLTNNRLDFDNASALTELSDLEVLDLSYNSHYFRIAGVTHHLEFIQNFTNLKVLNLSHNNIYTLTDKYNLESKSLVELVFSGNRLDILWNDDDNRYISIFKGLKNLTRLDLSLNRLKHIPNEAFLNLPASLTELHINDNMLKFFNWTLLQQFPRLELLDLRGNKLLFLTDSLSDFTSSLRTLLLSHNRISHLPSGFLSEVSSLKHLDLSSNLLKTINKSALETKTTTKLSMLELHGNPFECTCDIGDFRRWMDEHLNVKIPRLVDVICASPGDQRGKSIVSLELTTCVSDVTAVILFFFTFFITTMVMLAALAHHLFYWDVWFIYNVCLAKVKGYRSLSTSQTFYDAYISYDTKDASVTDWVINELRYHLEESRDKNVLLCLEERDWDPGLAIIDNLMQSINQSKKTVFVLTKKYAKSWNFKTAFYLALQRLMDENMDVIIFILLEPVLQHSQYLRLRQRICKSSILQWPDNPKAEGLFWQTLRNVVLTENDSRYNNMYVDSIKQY
# assay overview: huPBMC TLR8 Antagonist IL-6 TR-FRET Assay
# Assay type: cell-based
# Design: Fresh blood was collected from normal human donors; endogenous in cells; host or cells: human PBMCs from fresh donor blood
# condition info: human PBMCs stimulated with ssRNA40 1 μg/ml (DOTAP), 14-16 hrs; IL-6 TR-FRET read-out
# From the text: Compounds were generally serially diluted (1/3) in DMSO and plated on sterile 384 well tissue culture plates and stored until ready for use. Each ten-point dilution was typically plated in triplicate in parallel rows. Fresh blood was collected from normal human donors underwritten informed consent in heparinized syringes on the morning of the assay. […] Viable PBMCs were counted on a hemacytometer and kept on ice until ready for plating. […]
reported property: IC50 (nM)

compound: Cc1nc(N2CCc3c(c(C)nn3CC34CCC(N)(CC3)CC4)C2)c2cnn(C)c2n1 [compound 149]
uom: nM
IC50: 695

[a] Cc1nc(N2CCc3c(c(C)nn3CC34CCC(NC(=O)[C@@H]5CNCCO5)(CC3)CC4)C2)c2c(n1)c(C)nn2C [compound 34]
[b] Cc1cc(N2CCc3c(c(C)nn3CC34CCC(NC(=O)CN(C)C)(CC3)CC4)C2)c2cnn(C)c2n1 [Compound No. 7]
[c] CCNC12CCC(Cn3nc(C)c4c3CCN(c3ccnc(-c5ccccc5)c3)C4)(CC1)CC2 [compound 127]
Query :: Rank entries according to their IC50, from the largest number down. I'd appreciate it if you listed the labels in the requested order.
Result :: c, b, a
(c: 1430 nM, b: 61 nM, a: 29 nM)
